Hey, just so you know, these numbers are from patent US20240018123A1.

As an illustration, consider measured CC50 for molecules on VCaP cells.

molecule: CC1(C)C(NC(=O)c2ccc(N3CCN(CCCOC4CCN(C(=O)C5CN(c6ccc7nnn(C8CCC(=O)NC8=O)c(=O)c7c6)C5)CC4)CC3)cc2)C(C)(C)C1Oc1ccc(C#N)c(Cl)c1 (centres unmarked) [Example 36]
CC50 [nM]: 36.5

molecule: CC1(C)[C@H](NC(=O)c2ccc(C#CC3CCN(CC4CCN(c5ccc6nnn(C7CCC(=O)NC7=O)c(=O)c6c5)CC4)CC3)cc2)C(C)(C)[C@H]1Oc1ccc(C#N)c(Cl)c1 (some centres unmarked) [Example 99]
CC50 [nM]: 2

molecule: CC1(C)C(NC(=O)c2ccc(N3CCN(C(=O)C4CN(c5ccc6nnn(C7CCC(=O)NC7=O)c(=O)c6c5)C4)CC3)cc2)C(C)(C)C1Oc1ccc(C#N)c(Cl)c1 (centres unmarked) [Example 43]
CC50 [nM]: 37.3

molecule: CC1(C)C(NC(=O)c2ccc(C3CCN(CCOC4CCN(C(=O)C5CN(c6ccc7nnn(C8CCC(=O)NC8=O)c(=O)c7c6)C5)CC4)CC3)cc2)C(C)(C)C1Oc1ccc(C#N)c(Cl)c1 (centres unmarked) [Example 75]
CC50 [nM]: 30.1

molecule: CC1(C)[C@H](NC(=O)c2ccc(C#CC3CCN(C(=O)COc4ccc5nnn(C6CCC(=O)NC6=O)c(=O)c5c4)CC3)cc2)C(C)(C)[C@H]1Oc1ccc(C#N)c(Cl)c1 (some centres unmarked) [Example 144]
CC50 [nM]: 21
